# Tested on: HCT116 MTAP KO
# run description: Cell proliferation inhibition (CellTiter Glo), HCT116 MTAP KO cells
# Type: cell-based
# recorded conditions: Homo sapiens, HCT-116, 144 h, cultured 6 days with compound
pIC50: −log10 of the molar value.
property label: pIC50

| compound | target or test system | value measured |
| --- | --- | --- |
| CCNC(N)=Nc1ccc(C(=O)N(Cc2ccc(C(F)(F)F)cn2)C(C)c2ncccn2)cn1 (centres unmarked) | HCT116 MTAP KO | 6.15 |
| CN/C(N)=N\c1ccc(C(=O)N(Cc2ccc3nc(C)sc3c2)[C@H](C)c2ccccc2F)cn1 | HCT116 MTAP KO | 6.54 |
| CNC(N)=Nc1ccc(C(=O)N(Cc2ccc(C(F)(F)F)cc2)[C@H](C)c2ccccc2F)cn1 | HCT116 MTAP KO | 7.32 |
| CCC(c1ccccc1F)N(Cc1ccc(C(F)(F)F)cn1)C(=O)c1ccc(N=C(N)NC)nc1 (centres unmarked) | HCT116 MTAP KO | 7.60 |
| CNC(N)=Nc1ccc(C(=O)N(Cc2cscn2)[C@H](C)c2ccccc2F)cn1 | HCT116 MTAP KO | 6.38 |
